- protocolDetails: Selectivity index, ratio of IC50 for African green monkey Vero cells to IC50 for Trypanosoma cruzi TINF/CH/1956/Tulahuen DTU 6 amastigotes infected in African green monkey Vero cells
- Type: toxicity
- conditions: read-out: Ratio IC50
measuredAttribute: selectivity ratio

q: Which value of selectivity ratio has been reported for `COc1ccc(C(=O)CCN2CCN(c3ccc(F)cc3)CC2)cc1` in the records?
a: 34.6

q: Which value of selectivity ratio has been reported for `COc1ccc(C(=O)CCN2CCN(c3ccc(Cl)cc3)CC2)cc1` in the records?
a: 78.7

q: Which value of selectivity ratio has been reported for `COc1ccc(C(=O)CCN2CCN(c3ccc([N+](=O)[O-])cc3)CC2)cc1` in the records?
a: 17.5

q: Which value of selectivity ratio has been reported for `O=C(CCN1CCN(c2ccc([N+](=O)[O-])cc2)CC1)c1ccc(F)c(Br)c1` in the records?
a: 6.6

----------
- protocolDetails: Selectivity index, ratio of IC50 for African green monkey Vero cells to IC50 for Trypanosoma cruzi MHOM/Pe/2011/Arequipa DTU 5 amastigotes infected in African green monkey Vero cells
- Assay type: toxicity
- conditions: read-out: Ratio IC50
measuredAttribute: selectivity ratio
Could you respond with only the numeric value?

q: Which value of selectivity ratio has been reported for `COc1ccc(C(=O)CCN2CCN(c3ccc(F)cc3)CC2)cc1` in the records?
a: 88.7

q: Which value of selectivity ratio has been reported for `COc1ccc(C(=O)CCN2CCN(c3ccc(Cl)cc3)CC2)cc1` in the records?
a: 82.4

q: Which value of selectivity ratio has been reported for `COc1ccc(C(=O)CCN2CCN(c3ccc([N+](=O)[O-])cc3)CC2)cc1` in the records?
a: 20

q: Which value of selectivity ratio has been reported for `O=C(CCN1CCN(c2ccc(F)cc2)CC1)c1ccc(F)c(F)c1` in the records?
a: 13.6

----------
- protocolDetails: Selectivity index, ratio of IC50 for African green monkey Vero cells to IC50 for Trypanosoma cruzi MHOM/Pe/2011/Arequipa DTU 5 epimastigotes
- Type: toxicity
- conditions: read-out: Ratio IC50
Kindly state selectivity ratio for each of the entries shown.
Could you respond with only the numeric value?

q: Which value of selectivity ratio has been reported for `O=C(CCN1CCN(c2ccc(F)cc2)CC1)c1ccc(F)c(F)c1` in the records?
a: 18

q: Which value of selectivity ratio has been reported for `Cc1ccc(C(=O)CCN2CCN(c3ccc(C(F)(F)F)cc3)CC2)cc1` in the records?
a: 9.8

q: Which value of selectivity ratio has been reported for `O=C(CCN1CCN(c2ccc(F)cc2)CC1)c1ccc(Cl)c(F)c1` in the records?
a: 2.7

q: Which value of selectivity ratio has been reported for `O=C(CCN1CCN(c2ccc(C(F)(F)F)cc2)CC1)c1ccc(OC(F)(F)F)cc1` in the records?
a: 1.3

q: Which value of selectivity ratio has been reported for `COc1ccc(C(=O)CCN2CCN(c3ccc(C(F)(F)F)cc3)CC2)cc1OC` in the records?
a: 4.1

q: Which value of selectivity ratio has been reported for `Cc1ccc(C(=O)CCN2CCN(c3ccc(F)cc3)CC2)cc1` in the records?
a: 1.3

----------
- protocolDetails: Selectivity index, ratio of IC50 for African green monkey Vero cells to IC50 for Trypanosoma cruzi TINF/CH/1956/Tulahuen DTU 6 epimastigotes
- Type: toxicity
- conditions: read-out: Ratio IC50
Classify: 1 when selectivity ratio is strictly less than 1; -1 when selectivity ratio is not.

q: hey, is selectivity ratio for `COc1ccc(C(=O)CCN2CCN(Cc3cccc(C)c3)CC2)cc1OC` lower than 1 or not?
a: -1

q: hey, is selectivity ratio for `COc1ccc(C(=O)CCN2CCN(c3ccc(C(F)(F)F)cc3)CC2)cc1OC` lower than 1 or not?
a: -1

q: hey, is selectivity ratio for `COc1ccc(C(=O)CCN2CCN(Cc3cccc(F)c3)CC2)cc1OC` lower than 1 or not?
a: 1

q: hey, is selectivity ratio for `O=C(CCN1CCN(c2ccc([N+](=O)[O-])cc2)CC1)c1ccc(F)cc1` lower than 1 or not?
a: -1

q: hey, is selectivity ratio for `O=C(CCN1CCN(c2ccc(C(F)(F)F)cc2)CC1)c1ccc(Cl)c(F)c1` lower than 1 or not?
a: -1

q: hey, is selectivity ratio for `O=C(CCN1CCN(c2ccc([N+](=O)[O-])cc2)CC1)c1ccc(OC(F)(F)F)cc1` lower than 1 or not?
a: -1
